System: PANC-1
assay comment: Cytotoxicity against human PANC-1 cells assessed as cell viability incubated for 14 days by crystal violet-based clonogenic assay
measurement setup: PANC-1, 336 h
readout kind: pIC50
// pIC50 here means minus log10 of the molar concentration (mol/L)

So what pIC50 did "CCc1c2c(nc3ccc(OC(=O)N4CCC(N5CCCCC5)CC4)cc13)-c1cc3c(c(=O)n1C2)COC(=O)[C@]3(O)CC" get with PANC-1?
4.96

====

measurement target: UniProtKB O00748
Sequence (O00748 whole entry): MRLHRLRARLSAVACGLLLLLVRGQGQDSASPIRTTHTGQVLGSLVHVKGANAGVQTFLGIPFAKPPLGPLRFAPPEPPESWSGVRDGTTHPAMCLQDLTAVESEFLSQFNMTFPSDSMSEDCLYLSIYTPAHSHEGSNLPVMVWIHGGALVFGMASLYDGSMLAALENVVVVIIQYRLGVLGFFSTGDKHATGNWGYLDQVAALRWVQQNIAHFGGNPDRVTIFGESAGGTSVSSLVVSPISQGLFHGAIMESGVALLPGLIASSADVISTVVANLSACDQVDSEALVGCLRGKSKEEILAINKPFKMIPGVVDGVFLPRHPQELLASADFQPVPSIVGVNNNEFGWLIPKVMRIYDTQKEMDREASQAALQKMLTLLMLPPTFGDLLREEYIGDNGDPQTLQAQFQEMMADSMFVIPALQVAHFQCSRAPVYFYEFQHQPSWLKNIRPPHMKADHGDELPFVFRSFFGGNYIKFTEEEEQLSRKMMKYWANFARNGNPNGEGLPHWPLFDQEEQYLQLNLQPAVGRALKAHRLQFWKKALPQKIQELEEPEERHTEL
assay comment: in vitro
measurement setup: recombinant CES2, probe CPT-11 (conversion to SN-38)
readout kind: inhibition at 10 min, 12 µM (%)
Quick note: give the figure in %, leave out the unit.

The examples below pair each entry with its known result.
Given "CC(C)CN1C(=O)CCc2cc(NC(=O)Cc3cccc(F)c3)ccc21" , state its recorded inhibition at 10 min, 12 µM.
95

Same again, this time with COc1cc2c(cc1OC)C(C)N(C(=O)c1cc3c(s1)-c1ccccc1S(=O)(=O)C3)CC2 (stereo unspecified)
31

Entry to check: "O=C(CSc1cn(CC(=O)N2CCCC2)c2ccccc12)Nc1ccc(F)cc1F"
91

Now this one: "CCn1c(=O)c2sc(N3CCCC3)nc2n(CC(=O)Nc2cccc(Cl)c2C)c1=O"
51

Also need "CCOc1ccc2ncc(S(=O)(=O)c3ccc(OC)cc3)c(N3CCC4(CC3)OCCO4)c2c1" , thanks.
94

Let us move to another entry and its inhibition at 10 min, 12 µM.
// lookup inhibition at 10 min, 12 µM for "Cc1ccc(Nc2nc(C(=O)NCc3ccccc3)cc3occc23)cc1"
63
